FYI, the data here is from ChEMBL document CHEMBL1201862.

GI50: recorded values
# System: NCI-H460
# assay_summary: NCI tumour cell line growth inhibition, 48 h
Activity calls are given as the source filed them. Rule as the data show it: active = GI50 up to about 1.1 µM and inactive = higher.

N#CCCN(CCC#N)c1ccc(C(=O)NN)cc1 ... > 100 µM (inactive)
COc1cc(/C=N/N=C(\N)NO)c(Cl)cc1O ... > 10 µM (inactive)
CC(CC[C@@]1(O)OC2C[C@H]3[C@@H]4CC[C@H]5CC(OC6OC(CO)C(OC7OC(CO)C(O)C(OC8OCC(O)C(O)C8O)C7OC7OC(CO)C(O)C(O)C7O)C(O)C6O)[C@H](O)CC5(C)[C@H]4CCC3(C)C2[C@@H]1C)COC1OC(CO)C(O)C(O)C1O (some centres undefined) ... 2.09 µM (inactive)

Could you now consider this next compound?
Query: Kindly indicate its recorded GI50. Item: O=C(O)c1nc2ccccc2nc1NCc1ccc(F)cc1
Result: 60.7 µM (inactive)
